Test: protein stability index of a GFP-peptide fusion (GPS, HEK-293T) (PSI 1-6); higher = more stable;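 also: 24-mer peptide tiles fused after GFP, lentivirally expressed, FACS-sorted into six equal bins by GFP/DsRed ratio, decoded by Illumina sequencing, PSI is the read-weighted mean bin number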
Conditions: treatment: DMSO; c terminus: a fixed tail appended
Here, each record is paired with measured protein stability index data.

sequenceString	protein stability index
LLKSHTNVLSVNLPDNFTLKEDGM [TPH1]	3.15
YGLDSVKKKCLEWLLNNLMTHQNV [GMCL1]	3.09
FNCIRAAIAPFQSAGSPPELQGLP [NET1]	2.67
FHEDGPQGPGGDEDDDEEDTDKLL [PSD2]	5.55
LQTLRSFSHTLVSLSLFGCTNIFY [ZER1]	2.26
VPEKRDSGMTEVERTYSANCSDFL [SPATS1]	4.7
AEPDMDDPAYIAVLVLIFNAAKTC [INTS4]	2.37

====

Experiment: protein stability index of a GFP-peptide fusion (GPS, HEK-293T) (PSI 1-6); higher = more stable
Details: treatment: DMSO; c terminus: a fixed tail appended
Satisfied means recorded protein stability index is 3 or above; Not satisfied means it is below 3.

sequenceString	group
EIALAPYQHLEEDMKSLKQVLEMK [MTUS2]	Satisfied
DWYQRQRPSEIKDYSPYFKTIEDL [KRT16]	Not satisfied
HTVGVLFNNGAHMSLLPDKKTVHY [PLK2]	Not satisfied
RAFNTDHQTQLLYQASAMMVESRY [RAD51]	Not satisfied
DSLKFAVLMWLLTYVGALFNGLTL [RTN1]	Satisfied
KMKFVIGNGKNLVDFTFVENVVHG [NSDHL]	Not satisfied
RQSSVTESTLYPNPYHQPYISRKY [TPRG1]	Satisfied
AEELALEQAKKESEDQKRLKQAKE [CHCHD3]	Satisfied
HDQCKCENLIMFQNLANEEVRKLT [MATN2]	Satisfied
KTTQEAEKLLERQGQAKTPDSMFL [CDK11A]	Satisfied
QGQYETIERLRSLSPKIMQEAFLV [TBC1D10A]	Not satisfied

====

Test: protein stability index of a GFP-peptide fusion (GPS, HEK-293T) (PSI 1-6); higher = more stable
Conditions: treatment: DMSO; c terminus: a fixed tail appended
MET means recorded protein stability index is 4 or above; NOT MET means it is below 4.

sequenceString	group
QRRASTVSSVTQVEVDENAYRCGS [NET1]	MET
RYGRRTAIILSSCLLGLGSLVLIL [SLC2A12]	MET
ESASSQSGCLRISIQKLSNESRYM [NECAB1]	NOT MET
IIHVVKDQLIGQGIIVKDARLNGS [TENT5D]	NOT MET
LVLLRDGRTLIGFLRSIDQFANLV [LSM1]	NOT MET
EGLGQSLGNFKDDLLNVCMRHVEK [TRIM29]	NOT MET
LLKRIKKCCGMRNTDVSMENMVTV [KCNK9]	NOT MET
IATLRVALPSVMRFCCCVAVIYLG [MCOLN1]	NOT MET
ALVSHPEVPLISFTGSQPTAERIT [ALDH8A1]	NOT MET
YCDLPQLFQLSCSSTQLNELLLFA [OR3A1]	NOT MET
PQGPPASPSCPEEALAATWEQPWA [PXN]	MET
GCQPEDRRRRIIINVGGIKYSLPW [KCNG1]	NOT MET

====

Assay: protein stability index of a GFP-peptide fusion (GPS, HEK-293T) (PSI 1-6); higher = more stable
Conditions: treatment: MLN4924 1 uM, 8 h; c terminus: a fixed tail appended
T means recorded protein stability index is 3 or above; F means it is below 3.

sequenceString	group
SLPKRLCLVCGDVASGYHYGVASC [ESRRA]	F
ELEQQIWKERDEYITKVSEEVTRL [TRIM15]	T
DLEAVVPQNGSETGWARKGLGNTW [ATP23]	T
IHSCFSDVTCFLLPHPGLQVATSP [ATL3]	F
ASAGKRRCFWLGMEGLETAEGSNS [SDE2]	T
VYPKEFHLNRGNHEDHMVNLRYGF [PPEF2]	F
LADDHLIEVNGENVEDASHEEVVE [PDZK1]	T
EGKNMSFVNDLTVTQDGRKIYFTD [APMAP]	T
QKTSGQHMIQGAGSLEKALPIIQS [DLC1]	T
YNIATRRKALKNPSEEYGKILEVV [MLH1]	F
EEEKKKMEESKAKFENLCKLMKEI [HSP90AB1]	T
PPMTQAQAVSAPGILNRPPAPTAT [ZNF207]	T
CVDATRETNRLGRLINHSKCGNCQ [KMT5A]	T
TIAAIDGLALGGGLELALACDIRV [AUH]	F
QPWHAVMDIESLSVFTEPNRHFYR [FBXO33]	F
AYRTQVSSCCLHICQGIRGLWGTT [PKD2L1]	F
YCDLPQLFQLSCSSTQLNELLLFA [OR3A1]	F
STTTTTHITKTVKGGISETRIEKR [EPB41L3]	T
DVEAWFNTQTEELNQQVVSSSEQL [KRT36]	T
CSTNKPEGYRVSQALRENTYPFLA [FAF2]	F
MSSEVSARRDAKKLVRSPSGLRMV [ZFYVE21]	T
DNDPRDLIGDFSKGYLFHTVAGKH [CDC25A]	T
RAGHHPNQYATCRLCGRQVSRGPG [ZBED2]	F
NHLNPEVKKSCWTEEEDRIICEAH [MYBL2]	T

====

Test: protein stability index of a GFP-peptide fusion (GPS, HEK-293T) (PSI 1-6); higher = more stable
Settings: treatment: MLN4924 1 uM, 8 h; c terminus: a fixed tail appended

sequenceString	protein stability index
MTTESGSDSESKPDQEAEPQEAAG [EPB41L3]	5.56
FFYDCSNNPISEHFHPTVIGESMY [TENT5C]	2.26
AQTLAYGDMNHEWIGNEWLPSLGL [PPFIA4]	2.24
PIPVVFVLRHFHLLSDGSNTLSVS [SLC6A17]	2.84
AEESNPPLQDFPNSISSDKEATVP [MIA2]	5.36
YILELDDGNGGQFREVYVGKETMC [TRIM9]	2.29
PPTSGCLGPVPREDQAEAWGCSCC [TSPAN10]	4.74
ASAAAATAAFTTAKAAALSTKTPA [SPAG8]	4.57
PQTPEPVEGRKHVDVQTELYLEEI [RSPH3]	4
KNVEENLYSSSLGGGVATSPMLIV [GLT8D2]	2.06
DDPSLRKTHSSPALSQGHVTGSKT [PSD2]	5.5
TGNSLNEPEEPSEIPERRDSGVGA [DLC1]	5.59
LQVIKALKSSGLCESLTYGLPFIL [M1AP]	2.81

====

Assay: protein stability index of a GFP-peptide fusion (GPS, HEK-293T) (PSI 1-6); higher = more stable
Conditions: treatment: MLN4924 1 uM, 8 h; c terminus: a fixed tail appended
measurementName: protein stability index

sequenceString	numericValue
YFDPLRNEYFFDRNRPSFDAILYY [KCNA3]	2.44
LAGTQLLYAFFTRTHGDMHSLVRS [TRIB3]	3.05
DCMLSEEGATLLLRGLCANTVLRF [LRRC45]	2.42
LDMDDGTLSFIVDGQYMGVAFRGL [SPSB1]	2.32
WKESKGKDREYTDIIRKQVLGTKV [CDC34]	3.7
HTVGVLFNNGAHMSLLPDKKTVHY [PLK2]	2.66
RSNADYQYQLLRCNVDLLKIIQLG [CNOT7]	2.51
VCSDKRIPGFKFDNSLINQIENLN [LOXL2]	3.01
SVLEQLELQEKQKNEKLISLQEQL [TAF7L]	4.19
SAMLLVTLGKVLKVIVVMRSLFID [MED27]	2.85
TTTVCLVAAALRYLQIFATRRSCI [FAM189A2]	2.89
YQSYFKTIEELQQKILCAKAENAR [KRT34]	2.86
AYLVPYLVLLIIIGIPLFFLELAV [SLC6A17]	2.87
FEMLSGFPPFFDDNPFGIYQKILA [PRKX]	2.29
KGISSHSRSSLMPLRNDVDKRGET [SLC2A12]	5.06
KVRALEEANADLEVKIRDWHLKQS [KRT13]	4.22
TSLTALSLASASPPLSGRSTPKLT [PPFIA4]	4.13
ATLTQVSVEYGYRPGATAVPTPLT [FCHO1]	2.47
GMNGQMLCNLGKERFLELAPDFVG [ETS2]	2.91
RMEKGEPYMSIQPAEDPDDYDDGF [SMARCE1]	5.54
KGKVLAQQGEYSEAIPILRAALKL [FKBP8]	2.42
TVASMMHRQETVDCLKKFNARRKL [CAMK2D]	3.73
AVGAAAEAEADEEADPPASDLPTP [SNX8]	5.56
ETDHLSMEEEDPMPRQISRQSSVT [TPRG1]	5.28
GSKQYSAAIAFTLALFSHLVNHVN [SMG5]	3.14
SSFFTCNQKCQLRLLKTLETSRSH [ATP23]	2.58
DAILYYYQSGGRIRRPVNVPIDIF [KCNA3]	2.58

All values here come from the supplement of paper PMC10567573.
